Assay: in vitro
Conditions: human, hela cells, % viability
Measure: viability at 28.5 h, 10 µM (%)
Answers are plain numbers, in %.

As a guide, the following entries are already answered.
Oc1cccc2c1OCO2 [CBK000070] : 85.8
Cc1ccccc1-c1nnc(SC(C)C)n1CCN(C)CC(F)(F)F [CBK200090] : 92.3
COc1cc(CN2CCCC3(CCN(C(=O)c4cc(F)c(F)cc4F)C3)C2)cc(OC)c1OC (centres unmarked) [CBK131988] : 101
CCN1CCC2CCC(C1)N2Cc1ccc(Oc2cnccn2)cc1 (centres unmarked) [CBK304034] : 95.7

// query Query (compound): CNc1nc(N(C)C)nc(-n2cnc(SCCOc3ccccc3C)n2)n1 [CBK288564] ; field requested: viability at 28.5 h, 10 µM
// result 92.4

* * *

Assignment: determine reported viability at 28.5 h, 10 µM for the given molecules.
Experiment: in vitro
Conditions: human, hela cells, % viability
One number for each entry, in %.

As a guide, the following entries are already answered.
CN1CCN(c2nc(-c3ccoc3)cnc2N)CC1 [CBK063362] : 103
Cc1cc2c3c(c1)c1c(n3CCC2)CCNCC1 [CBK018380C] : 96.9
O=C(CN1CCC(Oc2nccnc2OCc2ccc(Cl)c(Cl)c2)CC1)Nc1ccccc1 [CBK153783] : 110
O=C(Cc1c[nH]cn1)Nc1ccc2cc[nH]c2c1 [CBK160059] : 95.1
OC(CN[C@H]1CC[C@](O)(c2ccc(Cl)cc2)CC1)c1ccccc1 (some centres unmarked) [CBK016206] : 98.4
CS(=O)(=O)N(Cc1ccccc1F)c1ccccc1C(=O)O [CBK287239] : 104
COc1nn(CC(=O)NC2(C)CCC2)c(=O)c2ccccc12 [CBK281603] : 83.2
CCCC/C=C/c1nccnc1NCc1ccco1 [CBK037116] : 105

The following molecules each have a reported value; give each one's viability at 28.5 h, 10 µM.
1. COc1cc(C(C)NC2CCN(c3nc(C)cs3)CC2)ccn1 (centres unmarked) [CBK304247]
2. O=C(O)CSc1nc2ccccc2[nH]1 [CBK225127]

// result
1: 83.4; 2: 95.3

The following molecules each have a reported value; give each one's viability at 28.5 h, 10 µM.
1. N#Cc1ccc(CNC(=O)c2ccc3[nH]ccc3c2)cc1 [CBK149078]
2. CC1=C[C@@H](CNC(=O)c2cccnc2)[C@H](C(C)C)C[C@H]1CC(=O)N1CCCC1 [CBK289055]
3. O=C(CCC(=O)c1ccccc1)NC1CCc2ccccc21 (centres unmarked) [CBK003351]
4. COc1ccc(C(=O)c2oc3cc(NC(=O)c4cccnc4)ccc3c2C)cc1 [CBK287652]

// result
1. 87.8
2. 87.7
3. 103
4. 85.1

The following molecules each have a reported value; give each one's viability at 28.5 h, 10 µM.
1. O=C1NC2=C(C(=O)N(CC3CCCO3)C2)C(c2ccc(F)c(F)c2)N1 (centres unmarked) [CBK282271]
2. CCc1nc(CC(=O)N2CCOC(c3ccc(F)cc3)C2)cs1 (centres unmarked) [CBK304083]
3. CC(=O)Nc1ccc(CN2C[C@@H]3OCC(=O)N(C)[C@@H]3C2)cc1 [CBK289240]
4. Nc1ncc(-c2cccc(Br)c2)nc1NCCCO [CBK063603]
5. Cc1ccc(S(=O)(=O)NCCSc2ccc(Cl)cc2)cc1[N+](=O)[O-] [CBK264126]

// result
1. 98
2. 87
3. 85.5
4. 91.3
5. 96.8

// query Query (molecule): c1coc(CNc2cncc(-c3cccs3)n2)c1 [CBK065630] ; field requested: viability at 28.5 h, 10 µM
// result 96.6

* * *

Assay: in vitro
Details: human, hela cells, % viability
Assignment: determine reported viability at 28.5 h, 10 µM for the given compounds.
One number for each entry, in %.

The following compounds each have a reported value; give each one's viability at 28.5 h, 10 µM.
1. Cc1ccc(-n2ncc3c(Nc4c(C)n(C)n(-c5ccccc5)c4=O)ncnc32)c(C)c1 [CBK294449]
2. O=C(O)COc1ccc(Br)cc1/C=N/Nc1ccccn1 [CBK262369]
3. O=C(NCc1ccc(F)cc1)c1ccc(Cn2ccnc2)cc1 [CBK297719]
4. Cc1ccc(C)c(NS(=O)(=O)c2cc(C(=O)NCc3ccccn3)ccc2C)c1 [CBK269110]

// result
[82.6, 102, 96.3, 98.3]

// query Query (compound): COc1ccc(N2CCN(C(=O)CCC(=O)c3cccs3)CC2)cc1 [CBK091413] ; field requested: viability at 28.5 h, 10 µM
// result 94.3

* * *

Experiment: in vitro
Settings: human, hela cells, % viability
Labelling: viability at 28.5 h, 10 µM reported below 90% becomes 1; at or above becomes -1.

Would you please look over these solved cases?
CC(C)(CC(=O)O)CC(=O)Nc1ccc(-c2nc3ccccc3s2)cc1 [CBK299796] : -1
O=C(OCCC1SC(NC2CC3C=CC2C3)=NC1=O)c1ccc(Cl)c(Cl)c1 (centres unmarked) [CBK200056T] : 1
CC(C)(C)c1ccc(S(=O)(=O)N2CCCC[C@H]2CCOC(=O)c2ncccc2C(=O)O)cc1 [CBK200066] : -1
O=c1[nH]c(CN2CCN(c3ncccn3)CC2)nc2ccccc12 [CBK269918] : -1
Oc1cccc(-c2cn3ccnc3c(NCc3ccccn3)n2)c1 [CBK037535] : -1

// query Input O=C(CCN1CCn2nc(C(O)C3CC3)cc2C1)NCc1cccs1 (centres unmarked) [CBK306603] ; condition: viability at 28.5 h, 10 µM strictly below 90%. Does it hold?
// result -1

// query Input CCNC(=O)C1(Cc2ccccc2-c2ccccc2)CCN(C(=O)c2ccccc2)CC1 [CBK285700] ; condition: viability at 28.5 h, 10 µM strictly below 90%. Does it hold?
// result -1

// query Input CC(C)CN(Cc1cccs1)C(=O)c1cc2n(n1)CCCN(C)C2 [CBK306793] ; condition: viability at 28.5 h, 10 µM strictly below 90%. Does it hold?
// result -1

// query Input Nc1nc(N)c2ncn([C@@H]3O[C@H](CO)[C@H](O)C3O)c2n1 (some centres unmarked) [CBK201275] ; condition: viability at 28.5 h, 10 µM strictly below 90%. Does it hold?
// result -1

// query Input Cc1cc2cn([C@H]3C[C@@H](O)[C@@H](CO)O3)c(=O)nc2o1 [CBK201287] ; condition: viability at 28.5 h, 10 µM strictly below 90%. Does it hold?
// result -1

// query Input CCN(Cc1ccccc1)C(=O)Nc1ccc2c(c1)OCCO2 [CBK155231] ; condition: viability at 28.5 h, 10 µM strictly below 90%. Does it hold?
// result -1

* * *

Assignment: determine reported viability at 28.5 h, 10 µM for the given molecules.
Assay: in vitro
Details: human, hela cells, % viability

As a guide, the following entries are already answered.
O=C([C@@H]1Cc2[nH]cnc2CN1Cc1cc2ccccc2o1)N1CCOCC1 : 114%
N#Cc1c(NC(=O)c2cccc(S(=O)(=O)Nc3ccc(C(=O)O)cc3)c2)sc2c1CCCC2 : 106%
Cc1nn(C)c(N2CCNCC2)c1NC(=O)C1=CC(=O)CC(C)(C)O1 [CBK050362T] : 99.9%
O=C(Cn1c(-c2cncs2)nc2ccccc21)NCc1ccccc1 : 103%
O=C(NCc1cccs1)c1ccc2nc[nH]c2c1 : 92.1%

The following molecules each have a reported value; give each one's viability at 28.5 h, 10 µM.
1. C1=CCC(CN(CCCn2ccnc2)Cc2cccnc2)CC1 (stereo not shown)
2. Cc1cc(OCC(=O)O/N=C(\N)Cc2ccc([N+](=O)[O-])cc2)ccc1Cl
3. O=C1c2ccccc2NC(c2ccccc2F)N1O (stereo not shown)
4. O=C(O)c1cc(-c2ccc(F)cc2)n[nH]1
5. CCc1nn(CC(=O)N(C)C)c(=O)c2cc3sc(C)cc3n12

// result
88.6%
98.2%
93.4%
96.1%
110%

* * *

Assay: in vitro
Details: human, hela cells, % viability
Measure: viability at 28.5 h, 10 µM (%)
Answers are plain numbers, in %.

As a guide, the following entries are already answered.
O=C(Cc1ccc(Cl)c(Cl)c1)NCCc1c[nH]c2ccc(Cl)cc12 : 100
CS(=O)(=O)CCOCCNC(=O)c1cc(Br)cnc1Cl : 86.4
Fc1ccc(-c2ccc(N3CCN(c4ccncc4)CC3)nc2)cc1Cl : 111

The following compounds each have a reported value; give each one's viability at 28.5 h, 10 µM.
1. CCOC(=O)CN1CCC(Oc2cncc(Oc3ccc(OC)c(OC)c3)n2)C1 (centres unmarked)
2. c1ccc(-c2cc(CC3(NCC4CCCCC4)COC3)no2)nc1
3. COc1ccc(CC(CC(=O)O)C(=O)Nc2ccc(OC)cc2)cc1 (centres unmarked)
4. COc1ccccc1-c1ccc(NC(=O)CCc2nc3ccccc3[nH]2)cc1
5. O=C(O)c1c(NS(=O)(=O)Cc2ccccc2[N+](=O)[O-])sc2c1CCCC2
6. CC1(C)CC(=O)c2sc(NC(=O)c3ccc4ncccc4c3)nc2C1

// result
1. 91.3
2. 93
3. 87.9
4. 103
5. 106
6. 92.2

The following compounds each have a reported value; give each one's viability at 28.5 h, 10 µM.
1. OC1(Cn2ccc3ncccc32)CCN(Cc2ccccc2F)CC1
2. Cc1ccccc1-c1csc2c(=O)[nH]c(N3CCC4(CC3)OCCO4)nc12
3. CSc1ccc(CNC(=O)c2ccc(Cl)cc2)s1

// result
1. 93.3
2. 96.9
3. 89.4

The following compounds each have a reported value; give each one's viability at 28.5 h, 10 µM.
1. CCNC(=O)N1CC2(CCN(Cc3ccc4ccccc4c3)CC2)c2ccccc21
2. COc1ccccc1CNC(=O)c1cnc2sc(C)cn2c1=O
3. CCN1C(=O)c2[nH]nc(-c3ccccc3O)c2C1c1cccc(O)c1 (centres unmarked)
4. COc1cccc(NC(=O)CSc2ccc(Cl)cc2)c1
5. O=C(NCCc1c[nH]cn1)N1CCCN(Cc2ccc(F)cc2)CC1

// result
[90, 104, 95.9, 85.6, 111]
